# System: porcine pancreatic elastase (PPE) (Sus scrofa, UniProt P00772)
# Sequence (P00772 27-266): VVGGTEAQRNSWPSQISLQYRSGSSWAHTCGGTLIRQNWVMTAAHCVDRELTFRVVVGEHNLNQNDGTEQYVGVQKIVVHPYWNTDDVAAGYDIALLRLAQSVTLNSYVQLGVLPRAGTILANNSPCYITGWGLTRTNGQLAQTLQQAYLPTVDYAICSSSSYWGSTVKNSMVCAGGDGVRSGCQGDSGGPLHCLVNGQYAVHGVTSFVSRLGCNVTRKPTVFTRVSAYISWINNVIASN
pIC50: −log10 of the molar value.
Readout Name: pIC50

Notebook entry, porcine pancreatic elastase (PPE) (Sus scrofa, UniProt P00772) assay: pIC50 of CC(C)(C)OC(=O)N[C@H]1CCCCC/C=C\[C@@H]2C[C@@]2(C(=O)NS(C)(=O)=O)NC(=O)[C@@H]2C[C@@H](Oc3nccc4ccccc34)CN2C1=O [Compound 2] = ?
< 4.00

----------
# Test system: HCV replicon (HCV 1b-377-neo replicon cells, Huh7)
# Run Description: HCV replicon cell-based FRET assay
# Conditions Used: Hepatitis C virus, Huh-7
pEC50: −log10 of the molar value.
Recorded pEC50 by entry

INSERT INTO results (compound, readout_name, result) VALUES
  ('CC(C)(C)OC(=O)N[C@H]1CCCCC/C=C\[C@@H]2C[C@@]2(C(=O)NS(C)(=O)=O)NC(=O)[C@@H]2C[C@@H](Oc3nccc4ccccc34)CN2C1=O [Compound 2]', 'pEC50', '6.30 to 7.30');

Notebook entry, HCV replicon (HCV 1b-377-neo replicon cells, Huh7) assay: pEC50 of CCC1(S(=O)(=O)NC(=O)C23CC2C=CCOCCCC(NC(=O)OC(C)(C)C)C(=O)N2CC(Oc4nccc5cc(OC)ccc45)CC2C(=O)N3)CC1 (stereo not drawn) [Compound 30] = ?
> 7.30

Notebook entry, HCV replicon (HCV 1b-377-neo replicon cells, Huh7) assay: pEC50 of COc1ccc2c(OC3CC4C(=O)NC5(C(=O)NS(=O)(=O)C6CC6)CC5C=CCOCCCC(NC(=O)OC(C)(C)C)C(=O)N4C3)nc(-c3ccc(N(C)C=O)cc3)cc2c1 (stereo not drawn) [Compound 114] = ?
> 7.30

----------
# System: HCV NS3/4A protease complex, BMS strain (genotype 1a) (UniProt P27958, C1454S/C1711G, species not given/STRAIN_BMS)
# Construct: b1001: DNA encoding the recombinant HCV NS3/4A protease complex (amino acids 1027 to 1711) ... a three-lysine solubilizing tail was added at the 3′-end of the NS4A coding region; fused on or other part: Three-lysine solubilising tail at the C-terminus of NS4A; A His tag is implied by the pET21b vector and Ni-NTA purification
# Run Description: Recombinant HCV NS3/4A protease complex FRET peptide assay, BMS strain
# Type: biochemical
# Conditions Used: NS3/4A BMS Strain; activity range classes
pIC50: −log10 of the molar value.
Readout Name: pIC50

Please review the entries below; each comes with its answer.
INSERT INTO results (molecule, result) VALUES
  ('COc1ccc2c(O[C@@H]3C[C@H]4C(=O)N[C@]5(C(=O)O)C[C@H]5/C=C\CCCOC[C@H](NC(=O)OC(C)(C)C)C(=O)N4C3)nccc2c1', '6.30 to 7.30'),
  ('CC(C)(C)OC(=O)N[C@H]1CCCCC/C=C\[C@@H]2C[C@@]2(C(=O)O)NC(=O)[C@@H]2C[C@@H](Oc3nccc4ccccc34)CN2C1=O', '6.30 to 7.30'),
  ('COc1ccc2c(OC3CC4C(=O)NC5(C(=O)O)CC5C=CCCCCC(NC(=O)OC(C)(C)C)C(=O)N4C3)nccc2c1 (stereo not shown)', '6.30 to 7.30'),
  ('COc1ccc2c(O[C@@H]3C[C@H]4C(=O)N[C@]5(C(=O)O)C[C@H]5/C=C\CCCO[C@H](C)[C@H](NC(=O)OC(C)(C)C)C(=O)N4C3)nccc2c1', '5.30 to 6.30'),
  ('COc1ccc2c(OC3CC4C(=O)NC5(C(=O)O)CC5C=CCCCCCC(NC(=O)OC(C)(C)C)C(=O)N4C3)nccc2c1 (stereo not shown) [Compound 17A]', '> 7.30');

# evaluate next
Entry under review: `COc1ccc2c(O[C@@H]3C[C@H]4C(=O)N[C@]5(C(=O)O)C[C@H]5/C=C\COCC[C@H](NC(=O)OC(C)(C)C)C(=O)N4C3)nccc2c1` . Reported pIC50?
4.30 to 5.30

----------
# System: HCV replicon (HCV 1b-377-neo replicon cells, Huh7)
# Run Description: HCV replicon cell-based FRET assay
# Conditions Used: Hepatitis C virus, Huh-7
Recorded EC50 by entry

INSERT INTO results (compound, system, result) VALUES
  ('COc1c(NC2CCCCCC=CC3CC3(C(=O)NS(=O)(=O)C3CC3)NC(=O)C3CC(Oc4nccc5ccccc45)CN3C2=O)c(=O)c1=O (stereo not drawn)', 'HCV replicon (HCV 1b-377-neo replicon cells, Huh7)', '50 to 500 nM');

Entry under review: `CC(C)(C)OC(=O)N[C@H]1CCCCC/C=C\[C@@H]2C[C@@]2(C(=O)NS(=O)(=O)C2(Cc3ccccc3)CC2)NC(=O)[C@@H]2C[C@@H](Oc3nccc4ccccc34)CN2C1=O` . Reported EC50?
50 to 500 nM

Entry under review: CC(C)(OC(=O)NC1CCCCCC=CC2CC2(C(=O)NS(=O)(=O)C2CC2)NC(=O)C2CC(Oc3nccc4ccccc34)CN2C1=O)C(Cl)(Cl)Cl (stereo not drawn) . Reported EC50?
< 50 nM

----------
# Test system: HCV replicon
# Run Description: Three-drug combination studies in HCV replicon system, combination index
# Format: cell-based
# Conditions Used: Hepatitis C virus, mono-therapy in the three-drug combination experiment, HCV replicon; read-out: NS5A inhibitor EC50
Readout Name: pEC50
# pEC50: negative log10 of molar concentration; output just the value

Entry under review: O=C(Nc1ccc(C2S/C(=N\c3ccc(N4CCOCC4)cc3)N(Cc3cccnc3)C2=O)cc1)[C@@H]1CCCN1C(=O)CCc1ccccc1 (stereo partly shown) [NS5A inhibitor, reference compound] . Reported pEC50?
8.30

----------
Recorded pEC50 by entry
# Tested on: HCV replicon (HCV 1b-377-neo replicon cells, Huh7)
# Run Description: HCV replicon cell-based FRET assay
# Conditions Used: Hepatitis C virus, Huh-7
pEC50: −log10 of the molar value. Where a name gives a salt, the structure may show the parent alone.

INSERT INTO results (compound, readout_name, result) VALUES
  ('CCC1(S(=O)(=O)NC(=O)C23CC2C=CCOCCCC(NC(=O)OC(C)C)C(=O)N2CC(Oc4nccc5cc(OC)ccc45)CC2C(=O)N3)CC1 (stereo not drawn) [Compound 37]', 'pEC50', '> 7.30'),
  ('CC(C)(C)OC(=O)N[C@H]1CCCCCCC[C@@H]2C[C@@]2(C(=O)NS(=O)(=O)C2CC2)NC(=O)[C@@H]2C[C@@H](Oc3nccc4ccccc34)CN2C1=O [Compound 10]', 'pEC50', '> 7.30'),
  ('COc1ccc2c(OC3CC4C(=O)NC5(C(=O)O)CC5C=CCOCCCC(NC(=O)OC(C)(C)C)C(=O)N4C3)nccc2c1 (stereo not drawn) [Compound 27]', 'pEC50', '5.30 to 6.30'),
  ('COc1ccc2c(OC3CC4C(=O)NC5(C(=O)NS(=O)(=O)C6CC6)CC5C=CCCCOCC(NC(=O)OC(C)C)C(=O)N4C3)nc(-c3ccc(N(C)C)cc3)cc2c1 (stereo not drawn) [Compound 109]', 'pEC50', '> 7.30'),
  ('CCC1(S(=O)(=O)NC(=O)C23CC2C=CCCCCCC(NC(=O)OC(C)(C)C)C(=O)N2CC(Oc4nccc5cc(OC)ccc45)CC2C(=O)N3)CC1 (stereo not drawn) [Compound 54]', 'pEC50', '> 7.30');

Entry under review: CCC(C)(C)OC(=O)NC1CCCCCC=CC2CC2(C(=O)NS(=O)(=O)C2CC2)NC(=O)C2CC(Oc3nccc4ccccc34)CN2C1=O (stereo not drawn) [Compound 125] . Reported pEC50?
> 7.30

Entry under review: O=C(NC1CCCC1)NC1CCCCCC=CC2CC2(C(=O)NS(=O)(=O)C2CC2)NC(=O)C2CC(Oc3nccc4ccccc34)CN2C1=O (stereo not drawn) [Compound 127] . Reported pEC50?
> 7.30

Entry under review: COc1ccc2c(OC3CC4C(=O)NC5(C(=O)NS(=O)(=O)C6CC6)CC5C=CCCCOCC(NC(=O)N5CCCC5)C(=O)N4C3)nc(-c3ccccc3)cc2c1 (stereo not drawn) [Compound 93] . Reported pEC50?
> 7.30

Entry under review: COc1ccc2c(OC3CC4C(=O)NC5(C(=O)NS(=O)(=O)C6CC6)CC5C=CCOCCCC(NC(=O)OC(C)(C)C)C(=O)N4C3)nccc2c1 (stereo not drawn) [Compound 28] . Reported pEC50?
> 7.30

Entry under review: N[C@H]1CCCCC/C=C\[C@@H]2C[C@@]2(C(=O)NS(=O)(=O)C2CC2)NC(=O)[C@@H]2C[C@@H](Oc3nccc4ccccc34)CN2C1=O [Compound 11, bis hydrochloride] . Reported pEC50?
6.30 to 7.30

Entry under review: COCC(=O)NC1CCCCCC=CC2CC2(C(=O)NS(=O)(=O)C2CC2)NC(=O)C2CC(Oc3nccc4ccccc34)CN2C1=O (stereo not drawn) [Compound 24] . Reported pEC50?
6.30 to 7.30

Entry under review: COc1ccc2c(OC3CC4C(=O)NC5(C(=O)NS(=O)(=O)C6CC6)CC5C=CCOCCCC(NC(=O)NC5CCCC5)C(=O)N4C3)nccc2c1 (stereo not drawn) [Compound 33] . Reported pEC50?
> 7.30
